Notes on Ki obtained with Protease (Human immunodeficiency virus 1).
Sequence (Q9YQ12 whole entry): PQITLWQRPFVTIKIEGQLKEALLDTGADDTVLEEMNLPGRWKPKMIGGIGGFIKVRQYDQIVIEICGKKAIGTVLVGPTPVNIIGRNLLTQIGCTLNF
ENDPOINT: Ki (nM)

In [3]: df
Out[3]:
                         chemical_structure  observed
0  CCOP(=O)(OCC)c1ccc(C[C@H](NC(=O)O[C@H]2CO[C@H]3OCC[C@H]32)[C@H](O)CN(CC(C)C)S(=O)(=O)c2ccc(OC)cc2)cc1    0.0012
1  CC(C)CN(C[C@@H](O)[C@H](Cc1ccccc1)NC(=O)O[C@H]1CCOC1)S(=O)(=O)c1ccc(N)cc1     0.345
2  COc1ccc(S(=O)(=O)N(CC(C)C)C[C@@H](O)[C@H](Cc2ccc(OCP(=O)(OC(C)C)OC(C)C)cc2)NC(=O)O[C@H]2CO[C@H]3OCC[C@H]32)cc1    0.0057
3  Cc1c(O)cccc1C(=O)N[C@@H](CSc1ccccc1)[C@H](O)CN1C[C@H]2CCCC[C@H]2C[C@H]1C(=O)NC(C)(C)C     0.732
4  COC(=O)c1ccc(C[C@H](NC(=O)O[C@H]2CO[C@H]3OCC[C@H]32)[C@H](O)CN(CC(C)C)S(=O)(=O)c2ccc(OC)cc2)cc1    0.0054
5  COC(=O)N[C@H](C(=O)N[C@@H](Cc1ccccc1)[C@@H](O)CN(Cc1ccc(-c2ccccn2)cc1)NC(=O)[C@@H](NC(=O)OC)C(C)(C)C)C(C)(C)C    0.0479

All values here come from ChEMBL document CHEMBL3217662.
